- Test system: Carrageenin edema in rat's paw
- Experiment description: Carrageenin Edema Test in Rat's Paw (anti-inflammatory activity, Table 1)
- Format: in vivo
- Assay setup: 100 mg/kg oral, hydrochloride, rat
Measured inhibition in vivo at 100 mg/kg by item
State the value, then name its unit.

For orientation, consider the following solved cases.
CCN(CC)C(CCNc1n[nH]c2ccc(Cl)cc12)CC(C)C (stereo not shown) [(54)] : 46%
CC1CCCCN1CCCNc1nn(CCCN2CCCC2)c2ccc(O)cc12 (stereo not shown) [(143)] : 30%
CCN(CC)CCCNc1nn(CCCN2CCOCC2)c2ccc(Cl)cc12 [(115)] : 31%
CCCCN(CCCC)CCCn1nc(N)c2cc(Cl)ccc21 [(8)] : 56%
CCCCN(CCCC)CCCNc1nn(CCCN(CC)CC)c2ccc(O)cc12 [(128)] : 31%
c1ccc2c(NCCN3CCOCC3)n[nH]c2c1 [(154), 3-(2-Morpholinoethylamino)indazole] : 50%
Oc1ccc2[nH]nc(NCCCN3CCOCC3)c2c1 [(88)] : 46%
Nc1n[nH]c2c(N)cccc12 [Compound C-3, 3,7-diaminoindazole, reference compound] : 6%

# lookup: inhibition in vivo at 100 mg/kg of CCN(CC)CCCNc1n[nH]c2ccc(OC)cc12 [(50)]
52%

Return reported inhibition in vivo at 100 mg/kg; argument: Nc1cc(N)c2[nH]nc(N)c2c1 [(167), 3,5,7-Triaminoindazole]
85%

Where do these numbers come from? They come from patent US4751302A.
